assay: NCI Yeast Anticancer Drug Screen. Data for the rad50 strain (AID 155);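 note: 0% = growth of vehicle-only cultures of the same strain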; settings: S. cerevisiae rad50 strain growth inhibition; at 11.0 µM
About 79,000 compounds went through this panel and 15% of them were active in at least one assay; those are over-represented in the sample as a whole. Activity calls are given as the source filed them. Cut-off read from the data, not from the text of the source: active = growth inhibition above about 70%; inactive = the rest.
Possible outcomes: true (1) = active, false (0) = inactive

COMPOUND	CLASSIFICATION
OC1(c2ccccc2)CCCc2ccc(Cl)cc21 (stereo not drawn)	false (0)
OC(CCNCc1ccccc1)c1ccc2ccccc2c1 (stereo not drawn)	true (1)
Cc1cccc(C(C)(C)C)c1NC(=O)C(C#N)C1=C(Cl)C(=O)c2ccccc2C1=O (stereo not drawn)	true (1)
COc1cccc2c1C(=O)c1c(O)c3c(c(O)c1C2=O)CC(O)(C(O)CO)CC3OC1CC(N2CCOCC2)C(O)C(C)O1 (stereo not drawn)	true (1)
C=C1C(=O)OC2CC1C(OC(C)=O)C/C(C)=C/CC/C(C)=C\CCC2(C)O (stereo not drawn)	false (0)
CCOC1Oc2ccccc2-c2nc(N)ncc21 (stereo not drawn)	false (0)
Brc1ccccc1-c1ncc(-c2ccccc2)o1	false (0)
CC(C)CCCC(C)C1CCC2C3CCC4=CC(=O)/C(=C\O)CC4(C)C3CCC12C (stereo not drawn)	false (0)

---

experiment: NCI Yeast Anticancer Drug Screen. Data for the bub3 strain (AID 167); details: S. cerevisiae bub3 mutant strain, at 3.7 µM, hits give high values
This is part of a sample that, as a whole, favours compounds with a hit. Of some 79,000 tested, about 15% had one in any assay. The source made the active and inactive calls. Rule as the data show it: active = growth inhibition above about 70%; inactive = the rest.
ASSAY ENDPOINT: growth inhibition

COMPOUND	ASSAY ENDPOINT	MEASURED VALUE
CCN(CC)CCNc1ccc([N+](=O)[O-])c2nc3ccccc3c(N)c12	growth inhibition	-40% (inactive)
CS(=O)(=O)SCc1ccc([N+](=O)[O-])cc1	growth inhibition	40% (inactive)
CSc1nc(C)c(CCOC(C)=O)c(N=P(c2ccccc2)(c2ccccc2)c2ccccc2)n1	growth inhibition	6% (inactive)
O=[N+]([O-])c1cc(F)c(F)cc1Sc1cc(F)c(F)cc1[N+](=O)[O-]	growth inhibition	5% (inactive)
O=C(/C=C/c1cc(Cl)cc(Cl)c1O)c1cccc(O)c1	growth inhibition	-11% (inactive)
O=C1NC(SSC2=NNC3(C(=O)N2)c2ccccc2-c2ccccc23)=NNC12c1ccccc1-c1ccccc12	growth inhibition	6% (inactive)
CCCCCCCCCCCCNC(C)=O	growth inhibition	-3% (inactive)
C#CCN(Cc1ccc2nc(N)[nH]c(=O)c2c1)c1ccc(C(=O)NC(CCC(=O)O)C(=O)O)cc1 (centres undefined)	growth inhibition	-8% (inactive)
O=P(NC1CCCCC1)(OCc1ccccc1)OCc1ccccc1	growth inhibition	4% (inactive)
CNC(=O)OCc1c(COC(=O)NC)c(-c2ccc(Cl)c(Cl)c2)n2c1SCC2	growth inhibition	-5% (inactive)
COc1oc(C(=O)NC2CCCCC2)c(-c2ccc(Cl)cc2)c1S(=O)(=O)c1ccccc1	growth inhibition	-25% (inactive)
COC(=O)NC1C(C)OC(OC2C/C=C(/C)C3C=CC4C(OC5CC(OC6CC(O)C(OC7CC(O)C(OC)C(C)O7)C(C)O6)C(O)C(C)O5)C(C)CC(C)C4C3(C)/C(O)=C3\C(=O)OC4(CC(C)C(CO)=CC4/C=C\2C)C3=O)CC1(C)[N+](=O)[O-] (centres undefined)	growth inhibition	19% (inactive)
COc1ccc([N+](=O)[O-])c2c(NCCCN(C)C)c3ccccc3nc12	growth inhibition	-2% (inactive)
COc1cc(/C=C2\NC(=O)N(/C=C3\C(=O)Oc4ccccc4C3=O)C2=O)ccc1O	growth inhibition	-2% (inactive)
CCCCN(CCCC)C(=O)/C=C/c1ccccc1	growth inhibition	10% (inactive)
O=C1C(Br)=C(c2ccccc2)O/C1=C/C(=O)c1ccc(Br)cc1	growth inhibition	-2% (inactive)
Cc1c2ccnc(C(=O)NCCN(C)C)c2cc2c3cc(O)ccc3n(C)c12	growth inhibition	1% (inactive)
CC(=O)SC(C[N+](=O)[O-])c1ccccc1 (centres undefined)	growth inhibition	30% (inactive)
CC(=O)ON=C1C=CC(=C(C#N)c2ccc(Cl)cc2)C=C1	growth inhibition	-4% (inactive)
CCC1(OC(=O)CN2CCN(CCO)CC2)C(=O)OCc2c1cc1n(c2=O)Cc2cc3ccccc3nc2-1 (centres undefined)	growth inhibition	1% (inactive)
COc1cc([C@@H]2c3cc4c(cc3[C@H](OC3OC5COC(C(C)C)OC5C(O)C3O)C3COC(=O)[C@@H]32)OCO4)cc(OC)c1O (some centres undefined)	growth inhibition	-39% (inactive)
Cc1nc2c(Br)cc(Br)cc2c(=O)n1-c1ccccc1NC1OCC(O)C(O)C1O (centres undefined)	growth inhibition	5% (inactive)
Oc1ccc(O)c(Cc2ccccc2)c1	growth inhibition	25% (inactive)
Nc1ccc2c(c1)C(=O)c1ccc(F)cc1-2	growth inhibition	6% (inactive)
CCCCCCSc1ncnc2[nH]ncc12	growth inhibition	7% (inactive)
O=C(CSC(=S)N1CCCCC1)Nc1nc2c(s1)CCCC2	growth inhibition	-8% (inactive)
CC[N+]1(C)CCC(O)(c2ccc(OC)cc2)C(C(=O)c2ccc(OC)cc2)C1 (centres undefined)	growth inhibition	-42% (inactive)
Oc1[nH]c2ccccc2c1N=NC(=S)N1CCCCC1	growth inhibition	5% (inactive)
COc1cc(/C=N/Nc2nnc3c4ccccc4c4ncccc4c3n2)cc(OC)c1OC	growth inhibition	-1% (inactive)
NC(=O)C(=O)NNc1ccccc1	growth inhibition	6% (inactive)
COc1ccc(NC(=O)CC2SC(=Nc3ccccc3C)NC2=O)c([N+](=O)[O-])c1 (centres undefined)	growth inhibition	-1% (inactive)
CCOC(=O)C#Cc1ccc([N+](=O)[O-])cc1	growth inhibition	-24% (inactive)
Cc1ccc(CC2(OCCN(C)C)CCC(C(C)(C)C)CC2)cc1 (centres undefined)	growth inhibition	-24% (inactive)
CCN(CC)CCNc1ccc2ncn3c4cc(OC)c(OC)c(=O)c4c(O)c1c23	growth inhibition	-3% (inactive)

---

experiment: NCI Yeast Anticancer Drug Screen. Data for the mlh1 strain (AID 171);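 note: 0% = growth of vehicle-treated control cultures of the same strain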; conditions: S. cerevisiae mlh1 strain growth inhibition; at 3.7 µM; hits give high values
The panel holds about 79,000 compounds, 15% with a hit somewhere; the sample as a whole holds those more often. Activity calls are given as the source filed them. Cut-off read from the data, not from the text of the source: active = growth inhibition above about 70%; inactive = the rest.
Documented growth inhibition across a set of compounds

COMPOUND	growth inhibition
CCOC(=O)c1[nH]cc(C)c1-c1cccn1-c1ccc(Cl)cc1[N+](=O)[O-]	22% (inactive)
COC(=O)CC1(O)C(/C=C/c2ccccc2)C(C(=O)OC)C(=O)C(C(=O)OC)C1C(=O)OC (centres undefined)	-1% (inactive)
CCCCN(CCCC)CCC(O)c1cc2c(Cl)cc(Cl)cc2c2cc(C(F)(F)F)ccc12 (centres undefined)	23% (inactive)
Cn1c(-c2ccc(/C=N\N3CCN(/N=C/c4ccc(-c5c[n+]6ccccc6n5C)cc4)CC3)cc2)c[n+]2ccccc12	-13% (inactive)
CC(=O)OCC(C)Cc1cc2c(cc1Br)OCO2 (centres undefined)	-8% (inactive)
CCC1(OC(=O)CN2CCN(CCO)CC2)C(=O)OCc2c1cc1n(c2=O)Cc2cc3ccccc3nc2-1 (centres undefined)	-5% (inactive)
O=[N+]([O-])c1cc(Cl)cnc1Br	8% (inactive)
C(=Nc1ccc(-c2cc(-c3ccccc3)nc3ccc4ccccc4c23)cc1)c1ccccc1	17% (inactive)
CN1C(=O)c2ccc3ccccc3c2C1=O	3% (inactive)
CCN(CC)CCN(C)CCc1ccc(Br)cc1	13% (inactive)
O=C(C[n+]1ccc2ccccc2c1)c1ccc2ccccc2c1	-30% (inactive)
CC[N+]1(C)CCC(O)(c2ccc(OC)cc2)C(C(=O)c2ccc(OC)cc2)C1 (centres undefined)	-64% (inactive)
CC1CC(C)(C)CC(OCCN2CCCCC2)(c2ccccc2)C1 (centres undefined)	5% (inactive)
Cc1ccc(NC(c2ccccc2)c2ccc3cccnc3c2O)cc1 (centres undefined)	2% (inactive)
COC(=O)/C=C(/C(=O)OC)C(Cl)(Cl)Cl	2% (inactive)
CCOC(=O)c1ccc(NC(=O)O/N=C(/Cl)C(C)C)cc1	-4% (inactive)
C[C@@](O)(/C=C/[C@H]1CC=CC(=O)O1)[C@@H](C[C@@H](O)\C=C/C=C\C=C\CO)OP(=O)(O)O	20% (inactive)
Cc1nc2ccccc2nc1NNc1ccccc1	-4% (inactive)
CN(C)CCNC(=O)c1cccc2cc([N+](=O)[O-])ccc12	6% (inactive)

---

Assay: NCI Yeast Anticancer Drug Screen. Data for the sgs1 strain (AID 173);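 note: 0% = growth of vehicle-only control cultures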
Conditions: S. cerevisiae sgs1 mutant, at 11.0 µM, hits give high values
Procedure: Growth inhibition of yeast strains with defined genetic alterations is measured as a screen for potential anti-cancer activity. Selected strains with alterations in DNA damage repair or cell cycle control were exposed to compounds and growth inhibition was measured relative to vehicle treated controls. The strain used in this assay is sgs1
Compounds without any hit were thinned out: in the full panel of roughly 79,000, 15% have a hit. The source made the active and inactive calls. No stated cut-off is given here; in the data, active means growth inhibition above about 70%; inactive means the rest.
Recorded growth inhibition for the following compounds

COMPOUND	growth inhibition
O=C1c2ccccc2C(=O)N1CCCC(=O)n1cc(F)c(=O)[nH]c1=O	41% (inactive)
Oc1ccc2c(c1)C(O)CCCC2 (centres undefined)	24% (inactive)
CCN(CC)CCOc1cc(C)c2cc(Cc3ccccc3)ccc2n1	12% (inactive)
C=C1CC(CCCl)(c2ccccc2)OC1=O (centres undefined)	59% (inactive)

// provenance: PubChem BioAssay (NCI)
